# Tested on: Klebsiella pneumoniae ATCC 10031
# protocol: MIC against Klebsiella pneumoniae ATCC 10031
# Type: cell-based
# conditionLabel: Klebsiella pneumoniae, ATCC10031
Measured MIC, listed per entry for reference.
State just the number; it will be interpreted in µg/mL.

The following compounds have reported results that may help.
>  <compound>
Cc1c(S)sc(SCC2=C(C(=O)O)N3C(=O)[C@@H](NC(=O)[C@H](NC(=O)c4cnccc4O)c4ccccc4)[C@H]3SC2)c(C)c1=O

>  <propertyLabel>
MIC

>  <measuredNumber>
12.5

$$$$
>  <compound>
O=C(O)C1=C(CSc2ccc(S)nn2)CS[C@@H]2[C@H](NC(=O)[C@H](NC(=O)c3cnccc3O)c3ccccc3)C(=O)N12

>  <propertyLabel>
MIC

>  <measuredNumber>
6.25

$$$$
>  <compound>
CC(=O)Nc1nc(S)nc(SCC2=C(C(=O)O)N3C(=O)[C@@H](NC(=O)[C@H](NC(=O)c4cnccc4O)c4ccccc4)[C@H]3SC2)n1

>  <propertyLabel>
MIC

>  <measuredNumber>
12.5

$$$$

Field: next compound
Q: Could you tell me which MIC is on file for Cc1nnc(SCC2=C(C(=O)O)N3C(=O)[C@@H](NC(=O)Cn4cnnn4)[C@H]3SC2)s1 [Cephazolin, reference compound] ?
A: 1.56
